Test system: skeletal muscle of the rat (chronic ischemic)
Test: Effect on the contractility of the skeletal muscle after chronic ischemia (tiring index)
Type: in vivo, rat (male Wistar)
Settings: 6 mg/kg p.o. over 7 days, n = 4-6; tiring index = maximum contractility / residual force after 5 min stimulation
List of TI of ischemic treated muscle values.
Field format: numeric only.

[
  {
    "SMILES_INPUT": "Cn1cnc(S(=O)(=O)O)c1Cl",
    "TI of ischemic treated muscle": 2.26
  },
  {
    "SMILES_INPUT": "Cn1cnc(S(=O)(=O)NCCN2CCOCC2)c1",
    "TI of ischemic treated muscle": 2.47
  },
  {
    "SMILES_INPUT": "CCCCN(CCCN1CCOCC1)S(=O)(=O)c1cn(C)cn1.Cl",
    "TI of ischemic treated muscle": 1.96
  },
  {
    "SMILES_INPUT": "Cl.Cn1cnc(S(=O)(=O)NCCCN2CCSCC2)c1",
    "TI of ischemic treated muscle": 2.95
  },
  {
    "SMILES_INPUT": "CN1CCN(CCCNS(=O)(=O)c2cn(C)cn2)CC1",
    "TI of ischemic treated muscle": 2.6
  }
]

QUERY: Form field: reported TI of ischemic treated muscle of Cn1cnc(S(=O)(=O)N2CCN(c3ccc(O)cc3)CC2)c1Cl
RESULT: 3.18

QUERY: Form field: reported TI of ischemic treated muscle of Cn1cnc(S(=O)(=O)O)c1
RESULT: 2.26

QUERY: Form field: reported TI of ischemic treated muscle of Cn1cnc(S(=O)(=O)NCCc2ccc(OCC(=O)O)cc2)c1Cl
RESULT: 2.16

###

Test: Acute toxicity (LD50 range)
Conditions: mouse, in vivo, ip, single administration, NMRI mice, 7 days
REPORTED_ENDPOINT: LD50 at 168 h

[
  {
    "SMILES_INPUT": "Cn1cnc(S(=O)(=O)N2CCN(c3ccc(O)cc3)CC2)c1",
    "LD50 at 168 h": "> 300 mg/kg"
  },
  {
    "SMILES_INPUT": "Cn1cnc(S(=O)(=O)NCCCCCCNS(=O)(=O)c2cn(C)cn2)c1",
    "LD50 at 168 h": "> 1200 mg/kg"
  },
  {
    "SMILES_INPUT": "Cn1cnc(S(=O)(=O)NCCc2ccc(O)cc2)c1Cl",
    "LD50 at 168 h": "> 1200 mg/kg"
  }
]

Next item in the queue.
QUERY: Form field: reported LD50 at 168 h of Cn1cnc(S(=O)(=O)N2CCN(c3ccc(O)cc3)CC2)c1Cl
RESULT: > 1200 mg/kg

###

Test system: skeletal muscle of the rat (chronic ischemic)
Assay: Effect on the contractility of the skeletal muscle after chronic ischemia (tiring index)
Type: in vivo, rat (male Wistar)
Details: 6 mg/kg p.o. over 7 days, n = 4-6; tiring index = maximum contractility / residual force after 5 min stimulation
List of TI of ischemic treated muscle values.
Field format: numeric only.

These recorded examples may help you get a feel for the data.
[
  {
    "SMILES_INPUT": "Cl.Cn1cnc(S(=O)(=O)NCCCCCN2CCOCC2)c1Cl",
    "TI of ischemic treated muscle": 1.98
  },
  {
    "SMILES_INPUT": "CCn1cnc(S(=O)(=O)NCCCN2CCOCC2)c1",
    "TI of ischemic treated muscle": 2.09
  }
]

QUERY: Form field: reported TI of ischemic treated muscle of Cl.Cn1cnc(S(=O)(=O)NCCCCCN2CCOCC2)c1
RESULT: 2.52

QUERY: Form field: reported TI of ischemic treated muscle of COCCN(CCCNS(=O)(=O)c1cn(C)cn1)CCOC
RESULT: 2.18

QUERY: Form field: reported TI of ischemic treated muscle of Cl.Cn1cnc(S(=O)(=O)NCCCN2CCN(Cc3ccccc3)CC2)c1
RESULT: 2.49

QUERY: Form field: reported TI of ischemic treated muscle of Cl.Cn1cnc(S(=O)(=O)NCCN2CCCC2)c1
RESULT: 2.56

QUERY: Form field: reported TI of ischemic treated muscle of Cc1nc(S(=O)(=O)NCCCN2CCOCC2)cn1C.Cl
RESULT: 2.30

QUERY: Form field: reported TI of ischemic treated muscle of Cn1cnc(S(=O)(=O)NC(CN2CCOCC2)CN2CCOCC2)c1
RESULT: 2.18

QUERY: Form field: reported TI of ischemic treated muscle of Cl.Cn1ccnc1S(=O)(=O)NCCCN1CCOCC1
RESULT: 2.74

QUERY: Form field: reported TI of ischemic treated muscle of Cn1cnc(S(=O)(=O)NCCc2ccc(OCC(=O)O)cc2)c1
RESULT: 2.92
